Taken from paper PMC4336329.

Measured target: human ether-à-go-go-related gene (hERG) potassium channel (human, UniProt Q12809);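 note: peak tail current of the secondary pulse compared with the same well before compound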
Sequence (Q12809 whole entry, looked up): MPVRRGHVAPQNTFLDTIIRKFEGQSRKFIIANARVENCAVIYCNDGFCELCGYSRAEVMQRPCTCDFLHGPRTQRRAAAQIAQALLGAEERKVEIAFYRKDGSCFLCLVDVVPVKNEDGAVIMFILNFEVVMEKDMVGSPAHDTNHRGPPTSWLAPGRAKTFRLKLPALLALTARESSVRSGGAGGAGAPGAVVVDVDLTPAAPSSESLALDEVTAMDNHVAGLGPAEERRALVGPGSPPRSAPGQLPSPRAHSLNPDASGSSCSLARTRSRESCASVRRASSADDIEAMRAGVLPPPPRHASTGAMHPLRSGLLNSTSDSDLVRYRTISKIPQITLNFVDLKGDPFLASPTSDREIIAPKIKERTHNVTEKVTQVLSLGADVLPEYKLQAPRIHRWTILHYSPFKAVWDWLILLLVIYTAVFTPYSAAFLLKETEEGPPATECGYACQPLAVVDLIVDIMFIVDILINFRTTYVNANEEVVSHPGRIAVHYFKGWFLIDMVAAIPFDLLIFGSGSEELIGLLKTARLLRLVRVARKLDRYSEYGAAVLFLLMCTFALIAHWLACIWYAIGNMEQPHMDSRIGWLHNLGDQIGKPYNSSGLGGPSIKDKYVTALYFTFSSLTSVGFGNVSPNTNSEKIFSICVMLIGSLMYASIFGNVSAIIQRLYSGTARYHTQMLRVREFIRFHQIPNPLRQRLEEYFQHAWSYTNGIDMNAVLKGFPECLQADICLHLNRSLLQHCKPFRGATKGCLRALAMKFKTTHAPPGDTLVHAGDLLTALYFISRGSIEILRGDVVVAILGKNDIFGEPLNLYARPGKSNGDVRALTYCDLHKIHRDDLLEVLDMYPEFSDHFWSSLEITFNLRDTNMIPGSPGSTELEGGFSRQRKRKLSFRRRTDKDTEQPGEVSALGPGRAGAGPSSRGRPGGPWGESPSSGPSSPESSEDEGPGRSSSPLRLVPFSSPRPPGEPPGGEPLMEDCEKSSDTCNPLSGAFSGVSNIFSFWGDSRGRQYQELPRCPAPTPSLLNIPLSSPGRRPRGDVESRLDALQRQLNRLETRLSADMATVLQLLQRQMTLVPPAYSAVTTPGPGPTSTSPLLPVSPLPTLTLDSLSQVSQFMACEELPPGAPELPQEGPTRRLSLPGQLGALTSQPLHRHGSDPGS
Test description: primary screen, population patch clamp on CHO cells stably expressing hERG; higher = less effect of the substance
The campaign covered roughly 310,000 compounds. About 14,000 (4.5%) showed an effect of 50% or more. The effect is printed as a negative number. This is one part of a sample in which strong results are shown more often than they occur.
Measured metric: hERG current change (%, negative = inhibition) at 10uM (%)
Quick note: give the figure in %, leave out the unit.

Examples with answers:
> print(dat)
                                   molecule  value
1  CCN(CC)CCCCCCCCOC(=O)c1cc(OC)c(OC)c(OC)c1.Cl  -50.1
2     Cc1ccc(CNC(=O)C(c2ccccc2)c2ccccc2)cc1    -64
3     COc1ccccc1Nc1nc(N)nc(CN(C)C2CCCCC2)n1  -35.8
4  COc1cc2[nH]c(C(=O)N3CCN(c4ccc(F)cc4)CC3)cc2c(OC)c1OC   17.9
5            CCSc1ccc2nnc(-c3cccc(F)c3)n2n1  -33.6

Exercise: Consider the molecule shown here: Cc1ccc(CSc2ccc3nnc(-c4cccnc4)n3n2)cc1 What is its recorded hERG current change (%, negative = inhibition) at 10uM?
Solution: -79.3

Exercise: Consider the molecule shown here: CCOc1ccccc1Nc1nc(N)nc(CN(C)C2CCCCC2)n1 What is its recorded hERG current change (%, negative = inhibition) at 10uM?
Solution: -76.1

Exercise: Consider the molecule shown here: COC(=O)CSc1ccc2nnc(-c3ccc(F)cc3)n2n1 What is its recorded hERG current change (%, negative = inhibition) at 10uM?
Solution: -43.7

Exercise: Consider the molecule shown here: COc1cc(Cl)cc(C#N)c1OCC(=O)O What is its recorded hERG current change (%, negative = inhibition) at 10uM?
Solution: 11

Exercise: Consider the molecule shown here: COc1ccc(Cl)cc1C(=O)CSc1nnnn1C1CCCCC1 What is its recorded hERG current change (%, negative = inhibition) at 10uM?
Solution: -4.88

Exercise: Consider the molecule shown here: CCOC(=O)CNC(=O)CSc1nnc(NC(=O)c2ccc3c(c2)OCO3)s1 What is its recorded hERG current change (%, negative = inhibition) at 10uM?
Solution: 3.8

Exercise: Consider the molecule shown here: COc1ccc(S(=O)(=O)Cc2ccc(C(=O)N3CCN(c4ccccn4)CC3)o2)cc1 What is its recorded hERG current change (%, negative = inhibition) at 10uM?
Solution: -27.9

Exercise: Consider the molecule shown here: COCCn1c(C)cc(C(=O)CSc2nnnn2C2CCCC2)c1C What is its recorded hERG current change (%, negative = inhibition) at 10uM?
Solution: -69

Exercise: Consider the molecule shown here: CCOc1ccccc1Nc1nc(N)nc(CN2CCCCC2C)n1 (stereo not shown) What is its recorded hERG current change (%, negative = inhibition) at 10uM?
Solution: -50

Exercise: Consider the molecule shown here: Cc1ccc(S(=O)(=O)NC(CCc2ccccc2)CC(=O)C(C)(C)C)cc1 (stereo not shown) What is its recorded hERG current change (%, negative = inhibition) at 10uM?
Solution: -0.463

Exercise: Consider the molecule shown here: CCn1c(C)cc(C(=O)CSc2nnnn2C2CCCC2)c1C What is its recorded hERG current change (%, negative = inhibition) at 10uM?
Solution: -53.5

Exercise: Consider the molecule shown here: COc1ccc(Nc2nc(N)nc(CN(C)C3CCCCC3)n2)cc1 What is its recorded hERG current change (%, negative = inhibition) at 10uM?
Solution: -57.5

Exercise: Consider the molecule shown here: COc1ccc(Cl)cc1C(=O)CSc1nnnn1C1CCCC1 What is its recorded hERG current change (%, negative = inhibition) at 10uM?
Solution: -6.05

Exercise: Consider the molecule shown here: COc1ccc(CN(C)C2CCCCC2)cc1 What is its recorded hERG current change (%, negative = inhibition) at 10uM?
Solution: -25.1

Exercise: Consider the molecule shown here: COc1cc(C(=O)OCCCOC(=O)c2cc(OC)c(OC)c(OC)c2)cc(OC)c1OC What is its recorded hERG current change (%, negative = inhibition) at 10uM?
Solution: 0.241

Exercise: Consider the molecule shown here: Fc1ccc(CSc2ccc3nnc(-c4cccnc4)n3n2)cc1 What is its recorded hERG current change (%, negative = inhibition) at 10uM?
Solution: -71.5

Exercise: Consider the molecule shown here: CC(=O)C(Sc1ccc2nnc(-c3ccc(F)cc3)n2n1)C(C)=O What is its recorded hERG current change (%, negative = inhibition) at 10uM?
Solution: 8.13

Exercise: Consider the molecule shown here: Fc1ccc(CSc2ccc3nnc(-c4cccs4)n3n2)cc1 What is its recorded hERG current change (%, negative = inhibition) at 10uM?
Solution: 17.1

Exercise: Consider the molecule shown here: O=C(CSc1ccc2nnc(-c3cccnc3)n2n1)Nc1ccc(F)cc1 What is its recorded hERG current change (%, negative = inhibition) at 10uM?
Solution: -31.5

Exercise: Consider the molecule shown here: O=C(NCc1ccc(F)cc1)C(c1ccccc1)c1ccccc1 What is its recorded hERG current change (%, negative = inhibition) at 10uM?
Solution: 4.43

Exercise: Consider the molecule shown here: CN1CCN(C(=O)c2cnn(-c3ccccc3)c2NC(=O)c2cccs2)CC1 What is its recorded hERG current change (%, negative = inhibition) at 10uM?
Solution: -29.2

Exercise: Consider the molecule shown here: Cc1ccc(CSc2nnc(-c3cccnc3)n2N)cc1 What is its recorded hERG current change (%, negative = inhibition) at 10uM?
Solution: 18

Exercise: Consider the molecule shown here: Cc1c(Cl)cccc1NC(=O)C1COc2ccccc2O1 (stereo not shown) What is its recorded hERG current change (%, negative = inhibition) at 10uM?
Solution: 8.79

Exercise: Consider the molecule shown here: Cc1ccccc1S(=O)(=O)Nc1nc2ccccc2nc1N1CCOCC1 What is its recorded hERG current change (%, negative = inhibition) at 10uM?
Solution: 7.22
